Attribution: patent US11718582B2

test: Pharmacokinetics in Wistar rats; assay type: in vivo; conditions: rat, plasma, oral, 5 mg/kg, read-out: CMAX
METRIC: Cmax (ng/mL)
Give the value in ng/mL but do not write ng/mL after it.

(Q) So what's the measured Cmax for this one? O=C(O)c1ccc(C2(NC(=O)[C@H]3CCCN3Cc3ccc(C(F)(F)F)cc3)CC2)cc1
(A) 4270

---

Target: human EP4 receptor (Homo sapiens)
Test: [3H]-PGE2 binding to recombinant human EP4 receptor (HEK293 membranes)
Set-up: expressed in transfected cells
Conditions: recombinant human EP4 receptor, HEK293 membranes, radioligand 1 nM, 90 min 25° C.; read-out: [3H]-PGE2 binding IC50 (nM ± SD)
Method: Studies of Binding Towards the Human EP4 Receptor. The experiments were performed in accordance with the procedure described by Abramovitz et al (Biochemica and Biophysica Acta; 1483, 285-293, 2000). The cell membranes bearing the human EP4 receptor, stably expressed by HEK293 cells (Human Embryonic Kidney 293) were prepared as described below. […] The protein content of the membrane suspension was determined using bovine serum albumin as a standard. […]
METRIC: IC50 (nM)
Output spec: scalar in nM, unitless text.

(Q) Can you look up the measured IC50 of O=C(O)c1ccc(C2(NC(=O)[C@@H]3CCCN3Cc3ccc(C(F)(F)F)cc3)CC2)cc1 for me?
(A) 2210

(Q) Consider the compound shown here: O=C(O)c1ccc(C2(NC(=O)[C@H]3CCCN3Cc3ccc(C(F)(F)F)cc3)CC2)cc1 What is its recorded IC50?
(A) 45

(Q) For the compound shown here, O=C(O)c1ccc(C2(NC(=O)[C@H]3CC4(CCN3Cc3ccc(C(F)(F)F)cc3)CC4)CC2)cc1 [CR6086, reference compound] , give the reported IC50.
(A) 48

---

test: Pharmacokinetics in Wistar rats; assay type: in vivo; settings: rat, plasma, oral, 5 mg/kg, converted from 4270 ng/ml, read-out: CMAX as plasma concentration
METRIC: Cmax

(Q) Which Cmax is listed for O=C(O)c1ccc(C2(NC(=O)[C@H]3CCCN3Cc3ccc(C(F)(F)F)cc3)CC2)cc1 ?
(A) ~9 µM

---

molecular target: human EP4 receptor (Homo sapiens, UniProt P35408); assay: Determination of cAMP in CHO cells transfected with human EP4 receptor (functional test); format: cell-based; parameters: expressed in transfected cells; host or cells: CHO cells; settings: inhibition of cAMP response to 30 nM PGE2; read-out: Antagonist effect: IC50
Sequence (P35408 whole entry): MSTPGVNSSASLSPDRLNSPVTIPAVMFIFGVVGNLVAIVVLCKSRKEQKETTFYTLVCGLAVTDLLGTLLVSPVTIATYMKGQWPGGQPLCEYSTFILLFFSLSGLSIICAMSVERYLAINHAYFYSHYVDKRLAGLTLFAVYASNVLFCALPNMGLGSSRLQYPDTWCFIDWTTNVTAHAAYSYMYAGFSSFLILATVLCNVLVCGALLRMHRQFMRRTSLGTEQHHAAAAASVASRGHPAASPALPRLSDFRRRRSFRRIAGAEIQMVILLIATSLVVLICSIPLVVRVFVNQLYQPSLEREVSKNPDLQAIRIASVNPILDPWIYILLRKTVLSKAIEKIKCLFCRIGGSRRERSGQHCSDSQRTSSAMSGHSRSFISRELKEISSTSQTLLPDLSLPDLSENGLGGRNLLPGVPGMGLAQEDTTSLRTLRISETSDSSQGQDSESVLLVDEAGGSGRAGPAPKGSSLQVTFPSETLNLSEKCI
Each item that follows carries a reported IC50.

COMPOUND	IC50
O=C(O)c1ccc(C2(NC(=O)[C@H]3CC4(CCN3Cc3ccc(C(F)(F)F)cc3)CC4)CC2)cc1 [CR6086, reference compound]	82 nM

(Q) Could you share which IC50 value was measured for O=C(O)c1ccc(C2(NC(=O)[C@H]3CCCN3Cc3ccc(C(F)(F)F)cc3)CC2)cc1 ?
(A) 160 nM
